- Test system: MDCK p60AmotL2-inducible + doxycycline (p60AmotL2 expressing)
- Protocol notes: drug sensitivity score (DSS) from 5-dose viability curve (DSS (area-based score, 0 = no response)); higher = more sensitive (stronger viability inhibition); extreme values may be limits of the assay
- Cond: doxycycline: 10 ng/mL; 72 h

Compound: N#CC(c1ccnc(OCc2ccc(CN3CCOCC3)cc2)n1)c1nc2ccccc2s1 (stereo not given) [Bentamapimod]
drug sensitivity score: 2.1
--
Compound: O=C(c1cccc(Cl)c1F)N1CCN(Cc2cccc(Nc3nccs3)n2)CC1 [MK-8745]
drug sensitivity score: 12.4
--
Compound: Clc1ccc(C(c2ccccc2Cl)C(Cl)Cl)cc1 (stereo not given) [Mitotane]
drug sensitivity score: 0
--
Compound: CC(C)C[C@H](NC(=O)CNC(=O)c1cc(Cl)ccc1Cl)B(O)O [Ixazomib]
drug sensitivity score: 9.7
--
Compound: Cn1nccc1Nc1nccc(-c2ccn([C@H](CO)c3ccc(Cl)c(F)c3)c(=O)c2)n1 [Ravoxertinib]
drug sensitivity score: 0.2
--
Compound: CC(C)(C)c1cc(NC(=O)Nc2ccc(Oc3ccnc4[nH]c(=O)cnc34)cc2F)n(-c2ccccc2)n1
drug sensitivity score: 7
--
Compound: Cn1cc(C[C@@H](N)C(=O)O)c2ccccc21 [1-methyl-D-tryptophan]
drug sensitivity score: 0
--
Compound: C=CCc1cccc(/C=N/NC(=O)CN2CCN(Cc3ccccc3)CC2)c1O [PAC-1]
drug sensitivity score: 4
--
Compound: COc1cc(Nc2ncc(F)c(Nc3ccc4c(n3)NC(=O)C(C)(C)O4)n2)cc(OC)c1OC [Tamatinib]
drug sensitivity score: 1.6
--
Compound: CC[C@]12C=CCN3CC[C@@]4(c5cc([C@@]6(C(=O)OC)C[C@@H]7C[C@@H](C(C)(F)F)CN(Cc8c6[nH]c6ccccc86)C7)c(OC)cc5N(C)[C@H]4[C@@](O)(C(=O)OC)[C@@H]1OC(C)=O)[C@@H]32 [Vinflunine]
drug sensitivity score: 3.3
--
Compound: C[C@]12CC[C@@H]3c4ccc(O)cc4C[C@@H](CCCCCCCCC[S+]([O-])CCCC(F)(F)C(F)(F)F)[C@H]3[C@@H]1CC[C@@H]2O (stereo not given in full) [Fulvestrant]
drug sensitivity score: 0
--
Compound: CCC/C=C/C=C/C(=O)O[C@H]1/C(=C/C(=O)OC)C[C@H]2C[C@H]([C@@H](C)O)OC(=O)C[C@H](O)C[C@@H]3C[C@H](OC(C)=O)C(C)(C)[C@](O)(C[C@@H]4C/C(=C/C(=O)OC)C[C@H](/C=C/C(C)(C)[C@]1(O)O2)O4)O3 [Bryostatin 1]
drug sensitivity score: 0
--
Compound: CN(C)Cc1c(C(=O)NCCOc2ccc(C(=O)NO)cc2)oc2ccccc12 [Abexinostat]
drug sensitivity score: 18.8
--
Compound: CC1(C)OCCn2c1nc1c(N3CCOCC3)nc(-c3cnc(N)nc3)nc12 [GDC-0084]
drug sensitivity score: 14.9
--
Compound: CN(C)C/C=C/C(=O)Nc1cc2c(Nc3ccc(F)c(Cl)c3)ncnc2cc1O[C@H]1CCOC1 [Afatinib]
drug sensitivity score: 18.3
